Exercise: for every item that follows, state its recorded pKd.
# assayedTarget: LecA (Pseudomonas aeruginosa, UniProt Q05097)
# Construct: made in house
# Sequence (Q05097 whole entry): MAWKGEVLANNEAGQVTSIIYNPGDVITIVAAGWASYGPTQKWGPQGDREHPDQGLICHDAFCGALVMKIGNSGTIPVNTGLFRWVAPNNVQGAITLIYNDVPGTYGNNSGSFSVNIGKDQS
# procedureDetails: Direct binding to immobilized LecA by surface plasmon resonance (SPR)
In plain terms, pKd is the concentration in mol/L turned into minus its base-10 logarithm.

Answer with the recorded pKd of "O=C(CCc1ccc(O[C@@H]2O[C@H](CO)[C@H](O)[C@H](O)[C@H]2O)cc1)Nc1ccc(OCCOc2ccc(NC(=O)CCc3ccc(O[C@@H]4O[C@H](CO)[C@H](O)[C@H](O)[C@H]4O)cc3)cn2)nc1" only.
8.00

Answer with the recorded pKd of "O=C(/C=C/c1ccc(O[C@@H]2O[C@H](CO)[C@H](O)[C@H](O)[C@H]2O)cc1)Nc1ccc(OCCCOc2ccc(NC(=O)/C=C/c3ccc(O[C@@H]4O[C@H](CO)[C@H](O)[C@H](O)[C@H]4O)cc3)cn2)nc1" only.
7.40

Answer with the recorded pKd of "Cc1ccc(NC(=O)CCc2ccc(O[C@@H]3O[C@H](CO)[C@H](O)[C@H](O)[C@H]3O)cc2)cc1S(=O)(=O)O" only.
5.42

Answer with the recorded pKd of "O=C(CCc1ccc(O[C@@H]2O[C@H](CO)[C@H](O)[C@H](O)[C@H]2O)cc1)Nc1ccc(Oc2ccc(NC(=O)CCc3ccc(O[C@@H]4O[C@H](CO)[C@H](O)[C@H](O)[C@H]4O)cc3)cc2)cc1" only.
7.66

Answer with the recorded pKd of "O=C(/C=C/c1ccc(O[C@@H]2O[C@H](CO)[C@H](O)[C@H](O)[C@H]2O)cc1)Nc1ccc(OCCOc2ccc(NC(=O)/C=C/c3ccc(O[C@@H]4O[C@H](CO)[C@H](O)[C@H](O)[C@H]4O)cc3)cn2)nc1" only.
7.86

Answer with the recorded pKd of "O=C(/C=C/c1ccc(O[C@@H]2O[C@H](CO)[C@H](O)[C@H](O)[C@H]2O)cc1)Nc1ccc(OCOc2ccc(NC(=O)/C=C/c3ccc(O[C@@H]4O[C@H](CO)[C@H](O)[C@H](O)[C@H]4O)cc3)cc2)cc1" only.
7.42

Answer with the recorded pKd of O=C(CCc1ccc(O[C@@H]2O[C@H](CO)[C@H](O)[C@H](O)[C@H]2O)cc1)Nc1ccc(OCCCOc2ccc(NC(=O)CCc3ccc(O[C@@H]4O[C@H](CO)[C@H](O)[C@H](O)[C@H]4O)cc3)cc2)cc1 [Compound E2] only.
7.73

Answer with the recorded pKd of "COc1ccc(NC(=O)CCc2ccc(O[C@@H]3O[C@H](CO)[C@H](O)[C@H](O)[C@H]3O)cc2)cc1" only.
5.27

Answer with the recorded pKd of O=C(/C=C/c1ccc(O[C@@H]2O[C@H](CO)[C@H](O)[C@H](O)[C@H]2O)cc1)Nc1ccc(OCCOc2ccc(NC(=O)/C=C/c3ccc(O[C@@H]4O[C@H](CO)[C@H](O)[C@H](O)[C@H]4O)cc3)cc2)cc1 [Compound D1] only.
7.39

Answer with the recorded pKd of O=C(CCc1ccc(O[C@@H]2O[C@H](CO)[C@H](O)[C@H](O)[C@H]2O)cc1)Nc1ccc(OCCOc2ccc(NC(=O)CCc3ccc(O[C@@H]4O[C@H](CO)[C@H](O)[C@H](O)[C@H]4O)cc3)cc2)cc1 [Compound D2] only.
7.64

Answer with the recorded pKd of O=C(/C=C/c1ccc(O[C@@H]2O[C@H](CO)[C@H](O)[C@H](O)[C@H]2O)cc1)Nc1ccc(OCCCOc2ccc(NC(=O)/C=C/c3ccc(O[C@@H]4O[C@H](CO)[C@H](O)[C@H](O)[C@H]4O)cc3)cc2)cc1 [Compound E1] only.
6.81

Answer with the recorded pKd of "O=C(CCc1ccc(O[C@@H]2O[C@H](CO)[C@H](O)[C@H](O)[C@H]2O)cc1)Nc1ccc(OCCCOc2ccc(NC(=O)CCc3ccc(O[C@@H]4O[C@H](CO)[C@H](O)[C@H](O)[C@H]4O)cc3)cn2)nc1" only.
7.51

Answer with the recorded pKd of "O=C(CCc1ccc(O[C@@H]2O[C@H](CO)[C@H](O)[C@H](O)[C@H]2O)cc1)Nc1ccc(OCCCCOc2ccc(NC(=O)CCc3ccc(O[C@@H]4O[C@H](CO)[C@H](O)[C@H](O)[C@H]4O)cc3)cn2)nc1" only.
7.60

Answer with the recorded pKd of "O=C(CCc1ccc(O[C@@H]2O[C@H](CO)[C@H](O)[C@H](O)[C@H]2O)cc1)Nc1ccc(CCc2ccc(NC(=O)CCc3ccc(O[C@@H]4O[C@H](CO)[C@H](O)[C@H](O)[C@H]4O)cc3)cc2S(=O)(=O)O)c(S(=O)(=O)O)c1" only.
7.48

Answer with the recorded pKd of "O=C(/C=C/c1ccc(O[C@@H]2O[C@H](CO)[C@H](O)[C@H](O)[C@H]2O)cc1)Nc1ccc(Oc2ccc(NC(=O)/C=C/c3ccc(O[C@@H]4O[C@H](CO)[C@H](O)[C@H](O)[C@H]4O)cc3)cc2)cc1" only.
7.17

Answer with the recorded pKd of "O=C(CCc1ccc(O[C@@H]2O[C@H](CO)[C@H](O)[C@H](O)[C@H]2O)cc1)Nc1ccc(OCOc2ccc(NC(=O)CCc3ccc(O[C@@H]4O[C@H](CO)[C@H](O)[C@H](O)[C@H]4O)cc3)cc2)cc1" only.
7.82

Answer with the recorded pKd of "COc1ccc(NC(=O)CCc2ccc(O[C@@H]3O[C@H](CO)[C@H](O)[C@H](O)[C@H]3O)cc2)cn1" only.
5.53

Answer with the recorded pKd of "O=C(CCc1ccc(O[C@@H]2O[C@H](CO)[C@H](O)[C@H](O)[C@H]2O)cc1)Nc1ccc(OCCCCOc2ccc(NC(=O)CCc3ccc(O[C@@H]4O[C@H](CO)[C@H](O)[C@H](O)[C@H]4O)cc3)cc2)cc1" only.
7.64

Answer with the recorded pKd of "COc1ccc(NC(=O)/C=C/c2ccc(O[C@@H]3O[C@H](CO)[C@H](O)[C@H](O)[C@H]3O)cc2)cc1" only.
5.28

Answer with the recorded pKd of "O=C(/C=C/c1ccc(O[C@@H]2O[C@H](CO)[C@H](O)[C@H](O)[C@H]2O)cc1)Nc1ccc(OCCCCOc2ccc(NC(=O)/C=C/c3ccc(O[C@@H]4O[C@H](CO)[C@H](O)[C@H](O)[C@H]4O)cc3)cc2)cc1" only.
5.65

Origin of the recorded values: paper PMC10107299
